# Test system: S. enterica typhimurium WT
# experimental-details: growth AUC normalised to DMSO control (median) (fraction of control); higher = less growth inhibition, active = hit call of the paper
# test-conditions: 20 µM
Where a name gives a salt, the structure may show the parent alone.
measured-quantity: growth AUC normalised to DMSO control

// query Please indicate recorded growth AUC normalised to DMSO control of NC[C@@H]1O[C@H](O[C@H]2[C@@H](O)[C@H](O[C@@H]3[C@@H](O)[C@H](N)C[C@H](N)[C@H]3O[C@H]3O[C@H](CO)[C@@H](O)[C@H](O)[C@H]3N)O[C@@H]2CO)[C@H](N)[C@@H](O)[C@@H]1O [Paromomycin sulfate] measured with S. enterica typhimurium WT.
// result 1 (inactive)

// query State growth AUC normalised to DMSO control on S. enterica typhimurium WT. Entry: Cc1c(N(C)C)c(=O)n(-c2ccccc2)n1C [Amidopyrine]
// result 1.01 (inactive)

// query Specify growth AUC normalised to DMSO control for CCCCC(O)c1ccccc1 (centres undefined) [Fenipentol] , system S. enterica typhimurium WT.
// result 1 (inactive)

// query Report growth AUC normalised to DMSO control from S. enterica typhimurium WT testing of C#C[C@]1(O)CC[C@H]2[C@@H]3CCC4=CC(=O)CC[C@@H]4[C@H]3CC[C@@]21C [Norethindrone]
// result 1.01 (inactive)

###

So I've got a bunch of compounds here, and I need their growth AUC normalised to DMSO control values.
# Test system: P. vulgatus WT
# experimental-details: growth AUC normalised to DMSO control (median) (fraction of control); higher = less growth inhibition, active = hit call of the paper
# test-conditions: 20 µM
Counter-ions that a name gives are not always drawn.
Respond with the number and no other words.

// query Hello, please tell me recorded growth AUC normalised to DMSO control for this one: CCN(CC)CCOC(=O)c1ccc(N)cc1 [Procaine hydrochloride]
// result 0.989

// query Return value of growth AUC normalised to DMSO control for input OCCN1CCN(CCCN2c3ccccc3Sc3ccc(C(F)(F)F)cc32)CC1 [Fluphenazine dihydrochloride] , no commentary.
// result 1

// query Give the reported growth AUC normalised to DMSO control for this compound. CC/C(=C(\c1ccccc1)c1ccc(OCCN(C)C)cc1)c1ccccc1 [Tamoxifen citrate]
// result 0.978

###

I'd appreciate it if you could supply growth AUC normalised to DMSO control values for the items below.
# Test system: Yersinia pseudotuberculosis
# experimental-details: growth AUC normalised to DMSO control (fraction of control); higher = less growth inhibition, active = hit call of the paper
# test-conditions: 20 µM
Structures can show the parent of a compound that is named as a salt.
Please respond with just the number, no unit label.

// query # return recorded growth AUC normalised to DMSO control for input O=C(c1ccc(F)cc1)C1CCN(CCn2c(=O)[nH]c3ccccc3c2=O)CC1 [Ketanserin tartrate hydrate]
// result 1

// query Please supply the value of reported growth AUC normalised to DMSO control for the item CCCCC1(COC(=O)CCC(=O)O)C(=O)N(c2ccccc2)N(c2ccccc2)C1=O [Suxibuzone]
// result 1.01

// query Name the recorded growth AUC normalised to DMSO control of the molecule listed here: CCc1cc(Cl)c(OC)c(C(=O)NC[C@@H]2CCCN2CC)c1O [(S,-) Eticlopride hydrochloride]
// result 0.986

// query Give the reported growth AUC normalised to DMSO control for this molecule. C[C@]12CCC(=O)C=C1CC[C@@H]1[C@@H]2[C@@H](O)C[C@@]2(C)[C@H]1CC[C@]2(O)C(=O)CO [Hydrocortisone]
// result 1.01

// query Read off the recorded growth AUC normalised to DMSO control for CO/N=C(\C(=O)N[C@@H]1C(=O)N2C(C(=O)O)=C(C[N+]3(C)CCCC3)CS[C@H]12)c1csc(N)n1 [Cefepime hydrochloride]
// result 0.049

// query Answer with the recorded growth AUC normalised to DMSO control for the molecule listed here: COCCOC(=O)C1=C(C)NC(C)=C(C(=O)OC(C)C)C1c1cccc([N+](=O)[O-])c1 (centres undefined) [Nimodipine]
// result 0.957

// query Using the record for NCc1ccc(S(N)(=O)=O)cc1 [Mafenide hydrochloride] , state its measured growth AUC normalised to DMSO control.
// result 0.969

// query Input CC(C)(Oc1ccc(CCNC(=O)c2ccc(Cl)cc2)cc1)C(=O)O [Bezafibrate] , output reported growth AUC normalised to DMSO control.
// result 0.994

// query Identify measured growth AUC normalised to DMSO control corresponding to Cc1cc(-n2c(=O)[nH]c(=O)n(C)c2=O)ccc1Oc1ccc(SC(F)(F)F)cc1 [Toltrazuril]
// result 1.01

###

Provide the reported growth AUC normalised to DMSO control of each item.
# System: S. enterica typhimurium WT
# experimental-details: growth AUC normalised to DMSO control (median) (fraction of control); higher = less growth inhibition, active = hit call of the paper
# test-conditions: 20 µM
Just the number, please, no unit attached.

// query For Cc1c(O)c(=O)n(-c2ccccc2)n1C [Antipyrine, 4-hydroxy] , write its growth AUC normalised to DMSO control.
// result 1.01

// query Look up and state reported growth AUC normalised to DMSO control for COc1cc(Nc2c(C#N)cnc3cc(OCCCN4CCN(C)CC4)c(OC)cc23)c(Cl)cc1Cl
// result 1

// query Entry Cc1ccc(-c2ncc(Cl)cc2-c2ccc(S(C)(=O)=O)cc2)cn1 needs its growth AUC normalised to DMSO control filled in; supply it.
// result 0.972

###

Provide the reported growth AUC normalised to DMSO control of each item.
# System: Salmonella enterica typhimurium
# experimental-details: growth AUC normalised to DMSO control (fraction of control); higher = less growth inhibition, active = hit call of the paper
# test-conditions: 20 µM
Counter-ions that a name gives are not always drawn.
Please give the numeric answer without any surrounding text.

// query Annotate the compound CCCCCN(C)CCC(O)(P(=O)(O)O)P(=O)(O)O [Ibandronate sodium] with its measured growth AUC normalised to DMSO control.
// result 0.982

// query Find the measured growth AUC normalised to DMSO control of CC(C)NC[C@H](O)COc1ccc(CC(N)=O)cc1 [(S,-) Atenolol] and report it.
// result 0.988

// query Find the measured growth AUC normalised to DMSO control of CN(C)c1nc(N(C)C)nc(N(C)C)n1 and report it.
// result 1.01

// query Fill in reported growth AUC normalised to DMSO control for this entry: CCCCNC(=O)NS(=O)(=O)c1ccc(C)cc1 [Tolbutamide]
// result 1.01

// query Using the record for Clc1ccccc1C(c1ccccc1)(c1ccccc1)n1ccnc1 , state its measured growth AUC normalised to DMSO control.
// result 0.992

// query Write down growth AUC normalised to DMSO control measured for item CC(C)(C)NC[C@@H](O)COc1cccc2c1CCCC2=O [(+) Levobunolol hydrochloride]
// result 0.982

// query Specify reported growth AUC normalised to DMSO control for the compound shown: NC1CCN(c2c(F)cc3c(=O)c(C(=O)O)cn(C4CC4)c3c2Cl)C1 (centres undefined)
// result 0.00836

// query State, in one line, measured growth AUC normalised to DMSO control of CN(C)/N=N/c1[nH]cnc1C(N)=O
// result 0.989

// query Answer with the recorded growth AUC normalised to DMSO control of CCCCN(CCCC)CCCOC(=O)c1ccc(N)cc1 only.
// result 0.988

###

# Test system: P. vulgatus WT
# experimental-details: growth AUC normalised to DMSO control (median) (fraction of control); higher = less growth inhibition, active = hit call of the paper
# test-conditions: 20 µM
Structures can show the parent of a compound that is named as a salt.
Exercise: state measured growth AUC normalised to DMSO control for each of the compounds provided.
API doc: respond with a numeric literal and nothing else, no unit.

// query Fill in growth AUC normalised to DMSO control for record CNCCC=C1c2ccccc2CCc2ccccc21 [Nortriptyline hydrochloride]
// result 1.01

// query Consider the compound CC(=O)S[C@@H]1CC2=CC(=O)CC[C@]2(C)[C@H]2CC[C@@]3(C)[C@@H](CC[C@@]34CCC(=O)O4)[C@H]12 . State its measured growth AUC normalised to DMSO control.
// result 1.02

// query Identify the reported growth AUC normalised to DMSO control for the following entry. C[C@@H]1CCC[C@H](C)N1NC(=O)c1ccc(Cl)c(S(N)(=O)=O)c1 [Clopamide]
// result 0.981

// query // Input: O=S(=O)(O)CCS . Output its growth AUC normalised to DMSO control only.
// result 1.01

###

Please go through the items and note down their growth AUC normalised to DMSO control.
# System: P. vulgatus WT
# experimental-details: growth AUC normalised to DMSO control (median) (fraction of control); higher = less growth inhibition, active = hit call of the paper
# test-conditions: 20 µM
Counter-ions that a name gives are not always drawn.
Field format: numeric only.

// query Enter recorded growth AUC normalised to DMSO control with P. vulgatus WT for CCN(CC)CCNC(=O)c1cc(Cl)c(N)cc1OC [Metoclopramide monohydrochloride] here.
// result 0.971

// query # return growth AUC normalised to DMSO control of Nc1nc(=O)n([C@@H]2CS[C@H](CO)O2)cc1F [(-) Emtricitabine] (system: P. vulgatus WT)
// result 0.986

// query Would you please give the reported growth AUC normalised to DMSO control of CCOC(=O)c1ccc(OC(=O)CCCCCNC(=N)N)cc1 [Gabexate mesilate] with P. vulgatus WT?
// result 1

// query Send back P. vulgatus WT growth AUC normalised to DMSO control of Cc1ccnc(NS(=O)(=O)c2ccc(N)cc2)n1 only.
// result 1.01

// query Under P. vulgatus WT, report growth AUC normalised to DMSO control for Cc1cc(C(C)(C)C)cc(C)c1CC1=NCCN1 [Xylometazoline hydrochloride]
// result 1.02

// query Enter recorded growth AUC normalised to DMSO control with P. vulgatus WT for CN(C)CCOC(c1ccccc1)c1ccccc1.Cn1c(=O)c2[nH]c(Cl)nc2n(C)c1=O [Dimenhydrinate] here.
// result 1
